# System: T. vaginalis ATCC 30001
# experimental.protocol: Antianaerobic activity, MIC by standard broth dilution method (Table II)
# Type: cell-based
# measurement.setup: Trichomonas vaginalis, ATCC30001, 24 h, Test 2; read-out: Minimal Inhibitory Concentration (MIC)
Structures can show the parent of a compound that is named as a salt.
Reported MIC values for the following compounds.

{"compound": "Clc1ccc(NN=C(Cn2ccnc2)c2ccc(Cl)cc2Cl)c(Cl)c1 [HC-380, hydrochloride]", "result.unit": "µg/mL", "qualifier.sign": "=", "MIC": 25}
{"compound": "Cl.FC(F)(F)c1ccc(C(Cn2ccnc2)=NNc2c(Cl)cccc2Cl)cc1 [HC-438]", "result.unit": "µg/mL", "qualifier.sign": "=", "MIC": 50}
{"compound": "Cl.Clc1ccc(/C(Cn2ccnc2)=N\\Nc2ccc(Cl)cc2Cl)cc1 [HC274]", "result.unit": "µg/mL", "qualifier.sign": "=", "MIC": 7.5}
{"compound": "CC(C(=NNc1ccc(Cl)cc1Cl)c1ccc(Cl)cc1)n1ccnc1 (stereo not drawn) [HC-433, hydrochloride]", "result.unit": "µg/mL", "qualifier.sign": "=", "MIC": 50}
{"compound": "Clc1ccc(NN=C(Cn2ccnc2)c2cc(Cl)ccc2Cl)c(Cl)c1 [HC-525, hydrochloride]", "result.unit": "µg/mL", "qualifier.sign": "=", "MIC": 50}
{"compound": "Cl.Clc1ccc(NN=C(Cn2ccnc2)c2ccccc2)c(Cl)c1 [HC-306]", "result.unit": "µg/mL", "qualifier.sign": "=", "MIC": 50}
{"compound": "CC(C(=NNc1c(Cl)cccc1Cl)c1ccc(Cl)cc1)n1ccnc1 (stereo not drawn) [HC-403, hydrochloride]", "result.unit": "µg/mL", "qualifier.sign": "=", "MIC": 7.5}
{"compound": "CC(C(=NNc1c(Cl)cc(Cl)cc1Cl)c1ccc(Cl)cc1)n1ccnc1 (stereo not drawn) [HC-561, hydrochloride]", "result.unit": "µg/mL", "qualifier.sign": ">", "MIC": 100}
{"compound": "Clc1ccc(/C(Cn2ccnc2)=N/Nc2c(Cl)cccc2Cl)s1 [HC390, hydrochloride]", "result.unit": "µg/mL", "qualifier.sign": ">", "MIC": 50}

----------
# experimental.protocol: in vivo
# measurement.setup: mouse, in vivo, iv

{"molecule": "Clc1ccccc1C(c1ccccc1)(c1ccccc1)n1ccnc1 [Clotrimazole, reference compound]", "result.unit": "mg/kg", "LD50 at 168 h": 10}

----------
Listing: MIC of selected compounds
# System: T. vaginalis ATCC 30001
# experimental.protocol: Antianaerobic activity, MIC by standard broth dilution method (Table II)
# Format: cell-based
# measurement.setup: Trichomonas vaginalis, ATCC30001, 24 h, Test 2; read-out: Minimal Inhibitory Concentration (MIC)
Counter-ions that a name gives are not always drawn.

{"compound": "Cl.Clc1ccc(Cl)c(NN=C(Cn2ccnc2)c2ccccc2Cl)c1 [HC-469]", "result.unit": "µg/mL", "qualifier.sign": "=", "MIC": 75}
{"compound": "Cl.Clc1ccc(NN=C(Cn2ccnc2)c2ccccc2Cl)c(Cl)c1 [HC316]", "result.unit": "µg/mL", "qualifier.sign": "=", "MIC": 50}
{"compound": "Cl.FC(F)(F)c1cccc(C(Cn2ccnc2)=NNc2c(Cl)cccc2Cl)c1 [HC474]", "result.unit": "µg/mL", "qualifier.sign": "=", "MIC": 50}
{"compound": "Clc1ccc(NN=C(Cn2ccnc2)c2ccc(Br)cc2)c(Cl)c1 [HC-378, hydrochloride]", "result.unit": "µg/mL", "qualifier.sign": ">", "MIC": 50}
{"compound": "Cl.FC(F)(F)c1ccc(C(Cn2ccnc2)=NNc2c(Cl)cc(Cl)cc2Cl)cc1 [HC-482]", "result.unit": "µg/mL", "qualifier.sign": "=", "MIC": 25}
{"compound": "Cl.Clc1cc(Cl)c(NN=C(Cn2ccnc2)c2ccccc2Cl)c(Cl)c1 [HC-523]", "result.unit": "µg/mL", "qualifier.sign": "=", "MIC": 50}
{"compound": "Cl.Clc1cccc(Cl)c1NN=C(Cn1ccnc1)c1ccc(Br)cc1 [HC-364]", "result.unit": "µg/mL", "qualifier.sign": "=", "MIC": 50}
{"compound": "Cl.Clc1ccc(NN=C(Cn2ccnc2)c2ccccc2)cc1Cl [HC-442]", "result.unit": "µg/mL", "qualifier.sign": "=", "MIC": 75}
{"compound": "Cl.Clc1ccc(C(Cn2ccnc2)=NNc2c(Cl)cc(Cl)cc2Cl)c(Cl)c1 [HC-420]", "result.unit": "µg/mL", "qualifier.sign": "=", "MIC": 50}
{"compound": "COc1ccc(C(Cn2ccnc2)=NNc2cc(Cl)ccc2Cl)cc1.Cl [HC-464]", "result.unit": "µg/mL", "qualifier.sign": "=", "MIC": 50}
{"compound": "Clc1ccc(NN=C(Cn2ccnc2)c2ccc(Cl)s2)c(Cl)c1 [HC-363, hydrochloride]", "result.unit": "µg/mL", "qualifier.sign": "=", "MIC": 50}
{"compound": "Cl.Clc1cccc(Cl)c1NN=C(Cn1ccnc1)c1ccc(Br)s1 [HC-466]", "result.unit": "µg/mL", "qualifier.sign": "=", "MIC": 50}
{"compound": "Cl.Clc1ccc(C(Cn2ccnc2)=NNc2ccccc2Br)cc1 [HC-486]", "result.unit": "µg/mL", "qualifier.sign": "=", "MIC": 50}
